experimental target: human ether-à-go-go-related gene (hERG) potassium channel (human, UniProt Q12809);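 further: peak tail current of the secondary pulse compared with the same well before compound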
Sequence (Q12809 whole entry, looked up): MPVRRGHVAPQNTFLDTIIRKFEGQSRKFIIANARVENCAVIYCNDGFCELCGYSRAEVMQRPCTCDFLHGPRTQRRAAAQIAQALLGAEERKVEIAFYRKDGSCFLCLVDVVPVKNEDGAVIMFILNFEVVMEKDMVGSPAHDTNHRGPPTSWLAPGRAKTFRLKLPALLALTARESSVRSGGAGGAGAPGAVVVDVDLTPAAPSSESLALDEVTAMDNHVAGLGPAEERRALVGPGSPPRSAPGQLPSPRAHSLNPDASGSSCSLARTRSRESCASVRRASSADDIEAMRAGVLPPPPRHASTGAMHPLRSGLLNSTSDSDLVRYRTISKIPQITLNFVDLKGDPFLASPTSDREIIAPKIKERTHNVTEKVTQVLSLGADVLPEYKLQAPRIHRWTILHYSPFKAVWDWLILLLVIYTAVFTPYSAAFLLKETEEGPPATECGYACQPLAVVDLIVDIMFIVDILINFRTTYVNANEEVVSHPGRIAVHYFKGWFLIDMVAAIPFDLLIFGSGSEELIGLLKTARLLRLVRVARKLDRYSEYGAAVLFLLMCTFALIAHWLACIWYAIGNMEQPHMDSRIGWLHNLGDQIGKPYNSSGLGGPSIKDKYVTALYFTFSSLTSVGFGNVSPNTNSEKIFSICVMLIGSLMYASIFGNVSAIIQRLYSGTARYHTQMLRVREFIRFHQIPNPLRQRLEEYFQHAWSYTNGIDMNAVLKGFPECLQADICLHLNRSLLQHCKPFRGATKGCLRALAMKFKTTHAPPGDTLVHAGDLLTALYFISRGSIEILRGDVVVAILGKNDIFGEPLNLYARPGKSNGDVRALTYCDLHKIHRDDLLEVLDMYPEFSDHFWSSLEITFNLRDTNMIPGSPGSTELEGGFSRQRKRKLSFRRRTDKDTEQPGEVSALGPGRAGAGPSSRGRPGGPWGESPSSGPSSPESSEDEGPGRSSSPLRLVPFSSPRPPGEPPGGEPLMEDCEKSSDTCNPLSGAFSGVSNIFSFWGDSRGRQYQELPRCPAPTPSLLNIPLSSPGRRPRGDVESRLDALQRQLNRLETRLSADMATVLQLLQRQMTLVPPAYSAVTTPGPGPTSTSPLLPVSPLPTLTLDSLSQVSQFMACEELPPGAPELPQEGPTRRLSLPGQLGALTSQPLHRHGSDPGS
assay details: primary screen, population patch clamp on CHO cells stably expressing hERG; higher = less effect of the substance
Experimental: Briefly, Chinese hamster ovary (CHO) cells stably expressing the hERG channel were dislodged from tissue culture flasks and dispensed into PPC plates. […] During the recording, background leak currents were estimated by a 100 ms step to -80 mV from an initial holding potential of -70 mV and subtracted from the subsequent current measurement. The campaign was conducted in two phases using slight differences in recording protocol. […]
About 14,000 (4.5%) of roughly 310,000 compounds showed an effect of 50% or more. The effect is printed as a negative number. This is one part of a sample in which strong results are shown more often than they occur.
measured parameter: hERG current change (%, negative = inhibition) at 10uM (%)

{"columns": ["molecule", "experimental target", "endpoint value"],
 "data": [
  ["O=C(c1ccc(Cl)c(S(=O)(=O)NCc2ccccc2)c1)N1CCN(c2ccccn2)CC1", "human ether-à-go-go-related gene (hERG) potassium channel (human, UniProt Q12809)", -50.3],
  ["CCCC(=O)N1CCN(Cc2nc3cc([N+](=O)[O-])ccc3n2C)CC1", "human ether-à-go-go-related gene (hERG) potassium channel (human, UniProt Q12809)", -36.8],
  ["CCCc1nnc(NC(=O)CN2CCN(C)CC2)s1.Cl", "human ether-à-go-go-related gene (hERG) potassium channel (human, UniProt Q12809)", -1.91],
  ["O=C(Nc1ccc(Cl)cc1F)C1CC1c1ccccc1 (stereo not drawn)", "human ether-à-go-go-related gene (hERG) potassium channel (human, UniProt Q12809)", 12.6],
  ["CC1CCN(S(=O)(=O)c2cc(C(=O)N3CCN(c4ncccn4)CC3)ccc2Br)CC1", "human ether-à-go-go-related gene (hERG) potassium channel (human, UniProt Q12809)", -72.4],
  ["CCCCCC(=O)NNC(=O)c1c(O)c2ccccc2n(CC)c1=O", "human ether-à-go-go-related gene (hERG) potassium channel (human, UniProt Q12809)", -13.5],
  ["Cc1ccc(-c2noc(CN3C(C)CCCC3C)n2)cc1 (stereo not drawn)", "human ether-à-go-go-related gene (hERG) potassium channel (human, UniProt Q12809)", 2.64],
  ["CC(C)(C)c1ccc(C(=O)NCCC(=O)N2CCCC2)cc1", "human ether-à-go-go-related gene (hERG) potassium channel (human, UniProt Q12809)", 16.4],
  ["Cn1c(CN2CCN(C(=O)c3ccc(F)cc3)CC2)nc2cc([N+](=O)[O-])ccc21", "human ether-à-go-go-related gene (hERG) potassium channel (human, UniProt Q12809)", -67.5],
  ["CN1CCN(Cc2nc3cc(NC(=O)COc4ccc([N+](=O)[O-])cc4)ccc3n2C)CC1", "human ether-à-go-go-related gene (hERG) potassium channel (human, UniProt Q12809)", 9.29],
  ["Cc1ccc(C)c(C(=O)Nc2nc3ccccc3[nH]2)c1", "human ether-à-go-go-related gene (hERG) potassium channel (human, UniProt Q12809)", 25.9],
  ["Cc1nn(Cc2c(Cl)cccc2Cl)c(Cl)c1C(=O)O", "human ether-à-go-go-related gene (hERG) potassium channel (human, UniProt Q12809)", 14.4],
  ["O=C(c1ccc(Cl)c(S(=O)(=O)N2CCCC2)c1)N1CCN(c2ncccn2)CC1", "human ether-à-go-go-related gene (hERG) potassium channel (human, UniProt Q12809)", -4.2],
  ["O=C(O)c1n[nH]c2ccccc12", "human ether-à-go-go-related gene (hERG) potassium channel (human, UniProt Q12809)", -4.09],
  ["CS(=O)(=O)Nc1ccc(C(=O)NCc2ccco2)cc1", "human ether-à-go-go-related gene (hERG) potassium channel (human, UniProt Q12809)", 0.221],
  ["O=C(c1ccc(Cl)c(S(=O)(=O)N2CCCC2)c1)N1CCN(c2ccccn2)CC1", "human ether-à-go-go-related gene (hERG) potassium channel (human, UniProt Q12809)", -31.3],
  ["CC(=O)N(C)c1ccc(NS(=O)(=O)Cc2ccccc2)cc1", "human ether-à-go-go-related gene (hERG) potassium channel (human, UniProt Q12809)", -8.12],
  ["Cc1ccc(C(C)C)c(OCC(=O)N2CCN(Cc3nc4cc([N+](=O)[O-])ccc4n3C)CC2)c1", "human ether-à-go-go-related gene (hERG) potassium channel (human, UniProt Q12809)", -65.8],
  ["CCOC(=O)c1ccc(N2CCN(C(=O)c3ccccc3)CC2)c(NC(=O)c2ccco2)c1", "human ether-à-go-go-related gene (hERG) potassium channel (human, UniProt Q12809)", -71.5],
  ["CC(C)CCNC(=O)NC(=O)CSc1nnc2ccccn12", "human ether-à-go-go-related gene (hERG) potassium channel (human, UniProt Q12809)", 15.6],
  ["C[C@@H]1CC=C[C@H]2[C@H]1C(=O)N(Cc1ccccc1)[C@H]2c1ccc(/C=C/c2ccccc2)cc1F", "human ether-à-go-go-related gene (hERG) potassium channel (human, UniProt Q12809)", 4.34],
  ["Cc1cc2sc3ccccc3c(=O)c2c(C)c1O", "human ether-à-go-go-related gene (hERG) potassium channel (human, UniProt Q12809)", 21.6],
  ["O=C(Nc1ccc(Oc2cccnc2)nc1)c1ccc(C(F)(F)F)cc1", "human ether-à-go-go-related gene (hERG) potassium channel (human, UniProt Q12809)", -30],
  ["Cn1c(CN2CCN(C(=O)COc3ccccc3)CC2)nc2cc([N+](=O)[O-])ccc21", "human ether-à-go-go-related gene (hERG) potassium channel (human, UniProt Q12809)", -55.2],
  ["COC(=O)c1ccc(N2CCN(C(=O)c3ccccc3)CC2)c(NC(C)=O)c1", "human ether-à-go-go-related gene (hERG) potassium channel (human, UniProt Q12809)", -39.8],
  ["CCOC(=O)CSc1nc2sc3c(c2c(=O)[nH]1)CC(C)(C)OC3", "human ether-à-go-go-related gene (hERG) potassium channel (human, UniProt Q12809)", 0.154],
  ["CS(=O)(=O)NCCSCc1c(F)cccc1Cl", "human ether-à-go-go-related gene (hERG) potassium channel (human, UniProt Q12809)", 1.87],
  ["COC(=O)c1ccc(N2CCN(C)CC2)c(NC(=O)c2ccc(-c3ccc(Cl)cc3)o2)c1", "human ether-à-go-go-related gene (hERG) potassium channel (human, UniProt Q12809)", 7.11],
  ["CCOC(=O)c1c(C)nc2c(c1-c1ccccc1)C(=O)CC(C)(C)C2", "human ether-à-go-go-related gene (hERG) potassium channel (human, UniProt Q12809)", -16.8],
  ["COC(=O)c1ccc(N2CCCCC2)c(NC(=O)c2ccco2)c1", "human ether-à-go-go-related gene (hERG) potassium channel (human, UniProt Q12809)", -45.8],
  ["Cc1cc(C)cc(C(=O)N2CCN(Cc3ccc4c(c3)OCO4)CC2)c1", "human ether-à-go-go-related gene (hERG) potassium channel (human, UniProt Q12809)", -20.1],
  ["Cc1ccc(S(=O)(=O)Nc2c(C)n(C)n(-c3ccccc3)c2=O)c(C)c1", "human ether-à-go-go-related gene (hERG) potassium channel (human, UniProt Q12809)", 9.47],
  ["CC1CCN(C(=O)c2ccc(Br)c(S(=O)(=O)N3CCOCC3)c2)CC1", "human ether-à-go-go-related gene (hERG) potassium channel (human, UniProt Q12809)", -3.74],
  ["N#Cc1ccc(-n2c(-c3ccccc3)nnc2-c2ccccc2)cc1C#N", "human ether-à-go-go-related gene (hERG) potassium channel (human, UniProt Q12809)", -15.5],
  ["O=C(c1ccc(CNS(=O)(=O)c2ccccc2)cc1)N1CCN(c2ccccn2)CC1", "human ether-à-go-go-related gene (hERG) potassium channel (human, UniProt Q12809)", -28.5],
  ["Cc1ccc(S(=O)(=O)/N=C(\\Sc2ccccc2)c2ccccc2)cc1", "human ether-à-go-go-related gene (hERG) potassium channel (human, UniProt Q12809)", 14.1],
  ["COC(=O)c1ccc(N2CCN(C)CC2)c(NC(=O)c2ccc(Br)o2)c1", "human ether-à-go-go-related gene (hERG) potassium channel (human, UniProt Q12809)", -55.8],
  ["COc1ccc(/C(O)=C2/C(=O)C(=O)N(c3ccccn3)C2c2ccc(F)cc2)cc1 (stereo not drawn)", "human ether-à-go-go-related gene (hERG) potassium channel (human, UniProt Q12809)", 35.2],
  ["O=C(c1ccc(Cl)c(S(=O)(=O)N2CCCCCC2)c1)N1CCN(c2ccccn2)CC1", "human ether-à-go-go-related gene (hERG) potassium channel (human, UniProt Q12809)", -63.6]
]}
